target: HLA-DR DRB1*0301 (DR3) (Homo sapiens, UniProt P01903+P01911, A100K/A102G/A103R/A169T/F55Y/I96L/K41T/L162R/M171V/P40S/Q125H/Q178H/Q39Y/R42S/S66N/T106N/T262R/W38E/Y61H); assay: biochemical; type: binding
Sequence (P01903 26-254 limits assumed, other chains not shown): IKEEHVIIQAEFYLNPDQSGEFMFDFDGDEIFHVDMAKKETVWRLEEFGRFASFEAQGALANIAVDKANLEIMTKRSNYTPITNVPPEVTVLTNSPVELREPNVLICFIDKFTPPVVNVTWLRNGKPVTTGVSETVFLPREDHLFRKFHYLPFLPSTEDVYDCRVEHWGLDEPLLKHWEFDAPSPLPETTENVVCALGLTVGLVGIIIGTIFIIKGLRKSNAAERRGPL
No end group written: not given here.
RECORDED ENDPOINT: log10 of IC50 (log10 of the value in µM)
Form field - Quantity: IC50; Unit: µM; Scale: log10

Specify measured log10 of IC50 for DIRILQELLMGSFGI .
0.51

Fill in reported log10 of IC50 for this entry: DMDKVETFLRIVQTR
1.05

State, in one line, measured log10 of IC50 of RTSIRASLTFNRGFK
-0.59

Given the sequence YIVMSDWTGGA , write its reported log10 of IC50.
1.13

Look up and state reported log10 of IC50 for DFAFTDLTIVYRDDT
-1.64

Provide log10 of IC50 value for the following sequence: YLVTGERGFFYTPKT
-0.29

Name the recorded log10 of IC50 of the sequence listed here: VGGVYLLPARGPRLGV
1.83

Provide one value: measured log10 of IC50 of LQLHVDKAVSGLRSL
-1.66

Identify log10 of IC50 associated with the sequence GEALSTLVLNRLKVG
1.07

Please indicate log10 of IC50 recorded for VNFYAWKRMEVGQQA
0.46

Identify measured log10 of IC50 corresponding to RVIKNSIRLTL
-0.23

Return log10 of IC50 for the following sequence: VQQLLMGALTVTCPL
1.54

Output measured log10 of IC50 for this item: GAPLGGLARALAHGV
2.55

Using known records, supply log10 of IC50 for VEALYLVCGERGSFY
1.00

Data origin, for the record: patent US20060079453A1
